Target: Full length human recombinant HDAC8 protein (Homo sapiens, UniProt Q9BY41)
Construct: Full length human recombinant HDAC8 protein was expressed in baculoviral system; made in house
Sequence (Q9BY41 1-377): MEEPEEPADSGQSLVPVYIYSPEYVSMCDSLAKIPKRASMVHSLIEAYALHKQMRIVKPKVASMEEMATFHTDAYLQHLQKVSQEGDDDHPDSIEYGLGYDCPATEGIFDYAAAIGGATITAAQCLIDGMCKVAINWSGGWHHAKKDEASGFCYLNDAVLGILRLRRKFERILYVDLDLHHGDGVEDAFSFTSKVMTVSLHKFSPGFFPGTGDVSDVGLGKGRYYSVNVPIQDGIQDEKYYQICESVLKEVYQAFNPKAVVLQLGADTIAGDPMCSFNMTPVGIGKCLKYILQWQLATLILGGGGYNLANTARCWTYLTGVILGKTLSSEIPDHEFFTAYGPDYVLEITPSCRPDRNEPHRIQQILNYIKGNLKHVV
Test: In vitro histone deacetylase assay: enzymatic HDAC8 electrophoretic mobility shift assay
Type: biochemical
Conditions: electrophoretic mobility shift assay; enzyme 1 nM; 2 μM fluorescently labeled peptide substrate RHKK(Ac)-NH2; 25° C.; 12 concentrations; read-out: HDAC8 IC50
pIC50: −log10 of the molar value.

{"columns": ["compound", "tested.on", "pIC50"],
 "data": [
  ["CC1CN(Cc2ccc(S(C)(=O)=O)cc2)c2cc(C(=O)NO)ccc2O1 (stereo not drawn)", "Full length human recombinant HDAC8 protein (Homo sapiens, UniProt Q9BY41)", "6.00 to 7.00"],
  ["COc1ccc(CN2C(=O)C(C)(C)Oc3ccc(C(=O)NO)cc32)cc1", "Full length human recombinant HDAC8 protein (Homo sapiens, UniProt Q9BY41)", "7.00 to 7.60"],
  ["COc1ccc(CN2C(=O)COc3ccc(C(=O)NO)cc32)cc1C", "Full length human recombinant HDAC8 protein (Homo sapiens, UniProt Q9BY41)", "> 7.60"],
  ["O=C(NO)c1ccc2c(c1)N(Cc1ccc(C(F)(F)F)cc1)CCO2", "Full length human recombinant HDAC8 protein (Homo sapiens, UniProt Q9BY41)", "7.00 to 7.60"],
  ["CC(c1ccccc1F)N1C(=O)COc2ccc(C(=O)NO)cc21 (stereo not drawn)", "Full length human recombinant HDAC8 protein (Homo sapiens, UniProt Q9BY41)", "7.00 to 7.60"],
  ["O=C(NO)c1ccc2c(c1)N(Cc1ccccc1)CC(C(=O)NCc1ccccc1)O2 (stereo not drawn)", "Full length human recombinant HDAC8 protein (Homo sapiens, UniProt Q9BY41)", "7.00 to 7.60"],
  ["CCCCCN1CCOc2ccc(C(=O)NO)cc21", "Full length human recombinant HDAC8 protein (Homo sapiens, UniProt Q9BY41)", "7.00 to 7.60"],
  ["C#CCN1C(=O)COc2ccc(C(=O)NO)cc21", "Full length human recombinant HDAC8 protein (Homo sapiens, UniProt Q9BY41)", "6.00 to 7.00"],
  ["COc1ccc(CN2C(=O)COc3cc(C(=O)NO)ccc32)cc1", "Full length human recombinant HDAC8 protein (Homo sapiens, UniProt Q9BY41)", "6.00 to 7.00"],
  ["CS(=O)(=O)c1ccc(CN2C(=O)COc3ccc(C(=O)NO)cc32)cc1", "Full length human recombinant HDAC8 protein (Homo sapiens, UniProt Q9BY41)", "> 7.60"],
  ["COc1ccc(CN2c3cc(C(=O)NO)ccc3OCC2C)cc1 (stereo not drawn)", "Full length human recombinant HDAC8 protein (Homo sapiens, UniProt Q9BY41)", "7.00 to 7.60"],
  ["CC(C)n1c(CN2C(=O)COc3ccc(C(=O)NO)cc32)nc2ccccc21", "Full length human recombinant HDAC8 protein (Homo sapiens, UniProt Q9BY41)", "6.00 to 7.00"],
  ["CS(=O)(=O)c1cccc(CN2CCOc3ccc(C(=O)NO)cc32)c1", "Full length human recombinant HDAC8 protein (Homo sapiens, UniProt Q9BY41)", "6.00 to 7.00"],
  ["CC(c1ccccc1Cl)N1CCOc2ccc(C(=O)NO)cc21 (stereo not drawn)", "Full length human recombinant HDAC8 protein (Homo sapiens, UniProt Q9BY41)", "6.00 to 7.00"],
  ["COCCn1c(CN2CCOc3ccc(C(=O)NO)cc32)nc2ccccc21", "Full length human recombinant HDAC8 protein (Homo sapiens, UniProt Q9BY41)", "6.00 to 7.00"],
  ["CC(c1ccc(S(C)(=O)=O)cc1)N1C(=O)COc2ccc(C(=O)NO)cc21 (stereo not drawn)", "Full length human recombinant HDAC8 protein (Homo sapiens, UniProt Q9BY41)", "> 7.60"],
  ["O=C(NO)c1ccc2c(c1)N(Cc1cccc(F)c1)CCO2", "Full length human recombinant HDAC8 protein (Homo sapiens, UniProt Q9BY41)", "> 7.60"],
  ["CC(c1ccc(S(C)(=O)=O)cc1)N1CCS(=O)(=O)c2ccc(C(=O)NO)cc21 (stereo not drawn)", "Full length human recombinant HDAC8 protein (Homo sapiens, UniProt Q9BY41)", "> 7.60"],
  ["O=C(NO)c1ccc2c(c1)N(Cc1cccc(S(=O)(=O)C(F)(F)F)c1)CCS2(=O)=O", "Full length human recombinant HDAC8 protein (Homo sapiens, UniProt Q9BY41)", "> 7.60"],
  ["O=C(NO)c1ccc2c(c1)N(Cc1ccn(-c3ccccc3)n1)C(=O)CO2", "Full length human recombinant HDAC8 protein (Homo sapiens, UniProt Q9BY41)", "> 7.60"],
  ["O=C(NO)c1ccc2c(c1)N(Cc1cnn(-c3ccccc3)c1)C(=O)CO2", "Full length human recombinant HDAC8 protein (Homo sapiens, UniProt Q9BY41)", "> 7.60"],
  ["O=C(NO)c1ccc2c(c1)N(Cc1c(F)cccc1Cl)C(=O)CO2", "Full length human recombinant HDAC8 protein (Homo sapiens, UniProt Q9BY41)", "7.00 to 7.60"],
  ["COc1ccc(CN2C(=O)COc3ccc(C(=O)NO)cc32)cc1F", "Full length human recombinant HDAC8 protein (Homo sapiens, UniProt Q9BY41)", "> 7.60"],
  ["CS(=O)(=O)c1cccc(CN2C(=O)COc3ccc(C(=O)NO)cc32)c1", "Full length human recombinant HDAC8 protein (Homo sapiens, UniProt Q9BY41)", "7.00 to 7.60"],
  ["O=C(NO)c1ccc2c(c1)N(CCc1ccc(Cl)cc1)C(=O)CO2", "Full length human recombinant HDAC8 protein (Homo sapiens, UniProt Q9BY41)", "7.00 to 7.60"],
  ["COc1cccc(N2C(=O)COc3ccc(C(=O)NO)cc32)c1", "Full length human recombinant HDAC8 protein (Homo sapiens, UniProt Q9BY41)", "7.00 to 7.60"],
  ["O=C(NO)c1ccc2c(c1)N(Cc1ccccc1)CCO2", "Full length human recombinant HDAC8 protein (Homo sapiens, UniProt Q9BY41)", "6.00 to 7.00"],
  ["O=C(NO)c1ccc2c(c1)N(c1ccccc1)C(=O)CO2", "Full length human recombinant HDAC8 protein (Homo sapiens, UniProt Q9BY41)", "6.00 to 7.00"],
  ["O=C(NO)c1ccc2c(c1)N(Cc1cccc(SC(F)(F)F)c1)C(=O)CO2", "Full length human recombinant HDAC8 protein (Homo sapiens, UniProt Q9BY41)", "> 7.60"],
  ["CC1CN(Cc2ccccc2)c2cc(C(=O)NO)ccc2O1 (stereo not drawn)", "Full length human recombinant HDAC8 protein (Homo sapiens, UniProt Q9BY41)", "6.00 to 7.00"],
  ["C=C(C)CN1CCOc2ccc(C(=O)NO)cc21", "Full length human recombinant HDAC8 protein (Homo sapiens, UniProt Q9BY41)", "6.00 to 7.00"],
  ["O=C(NO)c1ccc2c(c1)N(c1nc3ccccc3[nH]1)CCC2", "Full length human recombinant HDAC8 protein (Homo sapiens, UniProt Q9BY41)", "6.00 to 7.00"],
  ["O=C(NO)c1ccc2c(c1)N(Cc1nc3ccc(F)cc3o1)C(=O)CO2", "Full length human recombinant HDAC8 protein (Homo sapiens, UniProt Q9BY41)", "> 7.60"],
  ["COc1ccc(CN2C(=O)COc3ccc(C(=O)NO)cc32)cc1C(F)(F)F", "Full length human recombinant HDAC8 protein (Homo sapiens, UniProt Q9BY41)", "> 7.60"],
  ["CS(=O)(=O)c1ccc(CN2CCOc3ccc(C(=O)NO)cc32)c(Cl)c1", "Full length human recombinant HDAC8 protein (Homo sapiens, UniProt Q9BY41)", "> 7.60"],
  ["O=C(NO)c1ccc2c(c1)N(Cc1cc(C(F)(F)F)ccc1Cl)C(=O)CO2", "Full length human recombinant HDAC8 protein (Homo sapiens, UniProt Q9BY41)", "> 7.60"]
]}
